# TARGET_UNDER_TEST: Ba/F3 cells with EGFR WT (Homo sapiens, UniProt P00533)
# Construct: expressed in transfected cells; host or cells: Ba/F3 (murine pro-B cells), retroviral transduction, puromycin selection, maintained with EGF
# Sequence (P00533 25-1210): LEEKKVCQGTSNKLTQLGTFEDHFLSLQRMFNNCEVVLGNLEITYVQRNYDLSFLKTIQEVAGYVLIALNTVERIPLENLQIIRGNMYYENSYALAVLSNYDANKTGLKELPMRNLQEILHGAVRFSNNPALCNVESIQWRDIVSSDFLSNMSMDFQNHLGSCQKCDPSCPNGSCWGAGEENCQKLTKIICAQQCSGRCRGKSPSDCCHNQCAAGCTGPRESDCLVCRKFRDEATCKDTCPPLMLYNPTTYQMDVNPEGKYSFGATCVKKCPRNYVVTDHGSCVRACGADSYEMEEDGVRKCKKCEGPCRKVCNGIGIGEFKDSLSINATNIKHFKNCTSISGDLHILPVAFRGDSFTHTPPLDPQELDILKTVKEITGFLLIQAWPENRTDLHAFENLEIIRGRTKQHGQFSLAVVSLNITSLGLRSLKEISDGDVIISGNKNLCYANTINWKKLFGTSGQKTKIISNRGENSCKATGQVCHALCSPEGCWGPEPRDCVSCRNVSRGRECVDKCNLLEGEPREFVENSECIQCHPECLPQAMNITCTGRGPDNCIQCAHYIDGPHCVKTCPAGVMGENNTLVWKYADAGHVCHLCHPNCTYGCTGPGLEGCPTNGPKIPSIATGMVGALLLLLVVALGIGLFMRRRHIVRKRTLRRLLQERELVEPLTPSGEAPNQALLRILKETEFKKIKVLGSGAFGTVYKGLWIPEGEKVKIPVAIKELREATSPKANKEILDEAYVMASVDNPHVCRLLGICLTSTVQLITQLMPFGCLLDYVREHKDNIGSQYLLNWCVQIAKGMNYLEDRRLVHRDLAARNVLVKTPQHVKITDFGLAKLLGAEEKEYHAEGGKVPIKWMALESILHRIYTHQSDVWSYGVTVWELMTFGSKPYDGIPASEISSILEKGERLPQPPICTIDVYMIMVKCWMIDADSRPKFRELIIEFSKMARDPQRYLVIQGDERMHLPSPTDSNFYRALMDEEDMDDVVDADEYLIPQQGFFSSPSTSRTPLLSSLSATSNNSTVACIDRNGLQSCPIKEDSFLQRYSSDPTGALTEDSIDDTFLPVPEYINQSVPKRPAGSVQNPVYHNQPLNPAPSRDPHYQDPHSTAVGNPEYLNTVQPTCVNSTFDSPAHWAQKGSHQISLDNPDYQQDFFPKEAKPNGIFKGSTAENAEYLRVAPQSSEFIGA
# PROTOCOL: EGFR activity: Ba/F3 cell viability (CellTiter-Glo, 72 h), EGFR WT
# Type: cell-based
# STATED_CONDITIONS: read-out: BaF3 WT IC50
pIC50: −log10 of the molar value.
ATTRIBUTE_MEASURED: pIC50

>  <COMPOUND>
C=CC(=O)N1CCN(C)C[C@H]1COc1cnccc1-c1[nH]c2c(c1Nc1cccc(Cl)c1OC)C(=O)NCC2 [compound 568]

>  <TARGET_UNDER_TEST>
Ba/F3 cells with EGFR WT (Homo sapiens, UniProt P00533)

>  <pIC50>
6.00 to 7.00

$$$$
>  <COMPOUND>
C=CC(=O)NC1(C#Cc2cnccc2-c2[nH]c3c(c2Nc2cccc(Cl)c2OC)C(=O)NCC3)CC(F)(F)C1 [compound 400]

>  <TARGET_UNDER_TEST>
Ba/F3 cells with EGFR WT (Homo sapiens, UniProt P00533)

>  <pIC50>
6.00 to 7.00

$$$$

Note to self: pIC50 of COc1c(Cl)cccc1Nc1c(-c2ccncc2C#CC2CCC2)[nH]c2c1C(=O)NCC2 [compound 525] with Ba/F3 cells with EGFR WT (Homo sapiens, UniProt P00533) was < 6.00

Note to self: pIC50 of CCC(=O)N1CCC[C@@H]1COc1cnccc1-c1[nH]c2c(c1Nc1cccc(Cl)c1OC)C(=O)NCC2 [Compound 470] with Ba/F3 cells with EGFR WT (Homo sapiens, UniProt P00533) was < 6.00

Note to self: pIC50 of Cc1c(F)cccc1Nc1c(-c2ccncc2C#CC2COC2)[nH]c2c1C(=O)NCC2 [compound 509] with Ba/F3 cells with EGFR WT (Homo sapiens, UniProt P00533) was < 6.00

Note to self: pIC50 of C=CC(=O)N1CCN(C)C[C@@H]1COc1cnccc1-c1[nH]c2c(c1Nc1cccc(F)c1OC)C(=O)NCC2 [compound 566] with Ba/F3 cells with EGFR WT (Homo sapiens, UniProt P00533) was < 6.00

Note to self: pIC50 of COc1c(F)cccc1Nc1c(-c2ccncc2OCc2cccn3ccnc23)[nH]c2c1C(=O)NCC2 [Compound 475] with Ba/F3 cells with EGFR WT (Homo sapiens, UniProt P00533) was 6.00 to 7.00

Note to self: pIC50 of C=CC(=O)N1[C@H](COc2cnccc2-c2[nH]c3c(c2Nc2cccc(Cl)c2OC)C(=O)NCC3)C[C@H]1C [compound 270] with Ba/F3 cells with EGFR WT (Homo sapiens, UniProt P00533) was 6.00 to 7.00

Note to self: pIC50 of COc1c(Cl)cccc1Nc1c(-c2ccncc2C#CC(C)(C)NC(=O)/C=C/CN(C)C)[nH]c2c1C(=O)NCC2 [compound 388] with Ba/F3 cells with EGFR WT (Homo sapiens, UniProt P00533) was 6.00 to 7.00

Note to self: pIC50 of Cc1c(F)cccc1Nc1c(-c2ccncc2C#CCN2CCOCC2)[nH]c2c1C(=O)NCC2 [compound 505] with Ba/F3 cells with EGFR WT (Homo sapiens, UniProt P00533) was < 6.00
